- testTarget: T1, hPDGFRb.mmh (human, UniProt P09619 33-531)
- T1 construct: Soluble monomeric construct; also called soluble human PDGFR-beta.mmh
- T1 sequence (P09619 other isoform, or with tags, fused parts or gaps): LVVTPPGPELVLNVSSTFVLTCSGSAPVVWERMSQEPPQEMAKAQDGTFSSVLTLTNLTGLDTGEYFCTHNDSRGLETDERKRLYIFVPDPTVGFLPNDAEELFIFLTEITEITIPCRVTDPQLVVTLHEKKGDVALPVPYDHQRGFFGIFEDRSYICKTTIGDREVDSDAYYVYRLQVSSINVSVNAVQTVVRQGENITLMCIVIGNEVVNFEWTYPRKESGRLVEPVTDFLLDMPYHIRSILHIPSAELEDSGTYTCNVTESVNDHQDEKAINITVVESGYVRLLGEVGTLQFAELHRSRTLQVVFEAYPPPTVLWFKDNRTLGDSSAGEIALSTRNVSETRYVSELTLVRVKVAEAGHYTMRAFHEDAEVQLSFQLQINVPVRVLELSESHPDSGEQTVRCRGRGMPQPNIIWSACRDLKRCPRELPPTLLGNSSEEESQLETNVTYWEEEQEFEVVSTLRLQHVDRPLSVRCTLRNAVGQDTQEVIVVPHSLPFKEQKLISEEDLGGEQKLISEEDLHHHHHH
- assaySummary: SPR, mAb captured, 25 C
measurementType: kon
Answer format reminder: number followed by unit.

Item under review: H4H3103S (antibody, human IgG4, V domains shown, human IgG4 Fc (H4H prefix)) VH: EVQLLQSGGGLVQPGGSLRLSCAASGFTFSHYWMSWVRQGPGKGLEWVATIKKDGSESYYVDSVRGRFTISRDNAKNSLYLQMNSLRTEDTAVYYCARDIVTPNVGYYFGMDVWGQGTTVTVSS VL: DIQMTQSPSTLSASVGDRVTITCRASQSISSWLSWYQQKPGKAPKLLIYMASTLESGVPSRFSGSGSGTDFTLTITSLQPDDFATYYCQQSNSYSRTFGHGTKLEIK . Reported kon? 335000 M⁻¹ s⁻¹

Suppose we examine the binder H4H3102S (antibody, human IgG4, V domains shown, human IgG4 Fc (H4H prefix)) VH: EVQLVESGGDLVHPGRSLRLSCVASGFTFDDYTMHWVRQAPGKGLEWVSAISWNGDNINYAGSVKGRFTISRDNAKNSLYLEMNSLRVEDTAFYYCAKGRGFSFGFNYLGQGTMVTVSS VL: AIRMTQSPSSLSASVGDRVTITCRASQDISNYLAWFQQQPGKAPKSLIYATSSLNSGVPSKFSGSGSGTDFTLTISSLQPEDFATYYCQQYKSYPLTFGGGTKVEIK ; what kon value has been reported? 509000 M⁻¹ s⁻¹

// returns reported kon for input H4H3106S (antibody, human IgG4, V domains shown, human IgG4 Fc (H4H prefix)) VH: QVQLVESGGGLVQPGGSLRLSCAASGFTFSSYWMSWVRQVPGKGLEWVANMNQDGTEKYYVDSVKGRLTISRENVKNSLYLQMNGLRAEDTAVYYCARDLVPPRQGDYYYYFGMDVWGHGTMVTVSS VL: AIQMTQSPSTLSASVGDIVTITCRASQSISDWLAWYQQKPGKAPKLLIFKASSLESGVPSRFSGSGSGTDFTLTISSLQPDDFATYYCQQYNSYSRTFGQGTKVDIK 299000 M⁻¹ s⁻¹
